B1: CPXM2 (parent)
chain: EILGCPLPDPNNYYHRRNEMTTTD

Variants of: B1
Protocol: protein stability index of a GFP-peptide fusion (GPS, HEK-293T) (PSI 1-6); higher = more stable;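 also: lentivirally expressed fusions sorted by FACS into six bins by GFP to DsRed ratio, PSI derived from sequencing read proportions per bin multiplied by bin number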
Condition Notes: c terminus: a fixed tail appended
// values below are reported protein stability index
Quantity: protein stability index

EILGCPLPDPNNYYHRRNEMTTTF [D24F]	1.47
EPLGCPLPDPNNYYHRRNEMTTTD [I2P]	4.87
EILGCILPDPNNYYHRRNEMTTTD [P6I]	2.01
CILGCPLPDPNNYYHRRNEMTTTD [E1C]	2.83
EILGCPLPTPNNYYHRRNEMTTTD [D9T]	3.25
EILGCPLPDPNNYYHRRNEMTTND [T23N]	3.48
